Reference source: patent US11179383B2

studySystem: α4β7 integrin (Homo sapiens, UniProt P13612+P26010)
Construct: monitoring the capture of α4β7 integrin expressing cells on a recombinant MadCAM-1 extracellular domain-coated plate; endogenous in cells; host or cells: RPMI8866 cells
Sequence (P13612 34-1032): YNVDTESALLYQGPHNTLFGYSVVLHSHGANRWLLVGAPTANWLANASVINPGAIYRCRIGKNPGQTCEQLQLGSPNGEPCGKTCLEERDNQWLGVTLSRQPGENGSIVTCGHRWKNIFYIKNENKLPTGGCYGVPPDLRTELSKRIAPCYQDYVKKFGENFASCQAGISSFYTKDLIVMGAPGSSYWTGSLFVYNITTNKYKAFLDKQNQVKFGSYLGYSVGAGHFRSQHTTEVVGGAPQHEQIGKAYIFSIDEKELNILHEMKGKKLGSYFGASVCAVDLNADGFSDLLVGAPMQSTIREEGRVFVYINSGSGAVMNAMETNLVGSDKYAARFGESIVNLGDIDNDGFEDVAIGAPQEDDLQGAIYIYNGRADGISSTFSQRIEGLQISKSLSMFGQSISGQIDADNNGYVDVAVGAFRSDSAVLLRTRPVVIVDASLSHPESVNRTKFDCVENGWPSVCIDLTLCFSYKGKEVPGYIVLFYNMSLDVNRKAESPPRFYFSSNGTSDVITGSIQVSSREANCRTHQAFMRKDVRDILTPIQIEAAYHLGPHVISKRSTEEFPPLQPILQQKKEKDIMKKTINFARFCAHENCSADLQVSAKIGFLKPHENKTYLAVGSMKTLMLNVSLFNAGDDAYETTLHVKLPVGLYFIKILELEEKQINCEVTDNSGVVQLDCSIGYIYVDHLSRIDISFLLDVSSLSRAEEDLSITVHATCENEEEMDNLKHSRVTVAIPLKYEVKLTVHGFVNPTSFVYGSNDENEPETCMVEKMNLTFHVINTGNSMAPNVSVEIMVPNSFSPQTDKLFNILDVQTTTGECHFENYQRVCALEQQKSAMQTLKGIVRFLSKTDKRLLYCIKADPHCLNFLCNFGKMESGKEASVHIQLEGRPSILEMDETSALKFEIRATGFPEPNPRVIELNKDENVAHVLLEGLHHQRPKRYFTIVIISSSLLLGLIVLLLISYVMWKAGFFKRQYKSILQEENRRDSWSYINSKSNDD
Sequence (P26010 20-798): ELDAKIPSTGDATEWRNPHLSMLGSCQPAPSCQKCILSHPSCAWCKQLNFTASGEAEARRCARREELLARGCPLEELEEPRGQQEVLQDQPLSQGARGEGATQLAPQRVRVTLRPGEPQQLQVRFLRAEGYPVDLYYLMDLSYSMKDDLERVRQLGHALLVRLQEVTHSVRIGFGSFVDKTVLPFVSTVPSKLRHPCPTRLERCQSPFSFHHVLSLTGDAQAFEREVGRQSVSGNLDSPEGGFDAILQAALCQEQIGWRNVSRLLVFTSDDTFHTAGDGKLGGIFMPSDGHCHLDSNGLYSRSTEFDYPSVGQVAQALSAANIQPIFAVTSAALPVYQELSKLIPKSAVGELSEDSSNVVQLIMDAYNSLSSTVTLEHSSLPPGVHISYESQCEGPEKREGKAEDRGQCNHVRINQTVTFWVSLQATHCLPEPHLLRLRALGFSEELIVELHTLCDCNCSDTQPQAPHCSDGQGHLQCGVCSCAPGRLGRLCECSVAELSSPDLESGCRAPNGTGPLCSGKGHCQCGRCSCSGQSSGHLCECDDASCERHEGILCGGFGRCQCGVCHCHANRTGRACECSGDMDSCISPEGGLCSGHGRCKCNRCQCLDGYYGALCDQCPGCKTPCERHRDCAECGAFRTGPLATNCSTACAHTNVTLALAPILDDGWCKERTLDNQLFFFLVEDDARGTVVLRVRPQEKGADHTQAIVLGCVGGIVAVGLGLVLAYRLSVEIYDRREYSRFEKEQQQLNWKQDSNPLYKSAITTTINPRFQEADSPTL
experimentNotes: α4β7 Integrin Cell Capture Assay
Type: cell-based
reportedConditions: capture of α4β7 integrin expressing RPMI8866 cells on recombinant MadCAM-1 extracellular domain-coated plate; DMEM+0.5% FBS+0.5 mM MnCl2; read-out: EC50 α4β7
Consider the following molecules and their measured EC50 readings.
valueType: EC50

>  <molecule>
Cc1c(-c2ccc(C[C@H](NC(=O)c3c(F)cc(N4CCOC[C@@H]4C(F)(F)F)cc3F)C(=O)O)c3ncccc23)c(=O)n(C)c2ccc(F)cc12 (single isomer, unassigned) [Example 88]

>  <valueType>
EC50

>  <readoutValue>
0.1 nM

$$$$
>  <molecule>
Cn1c(=O)c(-c2ccc(C[C@H](NC(=O)c3c(F)cc(N4CCOC[C@@H]4C(F)(F)F)cc3F)C(=O)O)c3ccccc23)cc2cnccc21

>  <valueType>
EC50

>  <readoutValue>
0.1 nM

$$$$
>  <molecule>
O=C(N[C@@H](Cc1ccc(-c2c(Cl)cccc2C(F)(F)F)c2cccnc12)C(=O)O)c1c(Cl)cccc1Cl

>  <valueType>
EC50

>  <readoutValue>
538 nM

$$$$
>  <molecule>
CCOCc1cc(OC)c(-c2ccc(CC(NC(=O)c3c(F)cc(NS(=O)(=O)c4ccc(-c5ccnc(F)c5)cc4)cc3F)C(=O)O)c3c2cnn3C)c(OC)c1 (centres unmarked)

>  <valueType>
EC50

>  <readoutValue>
30.2 nM

$$$$
>  <molecule>
COc1cc(F)c(F)cc1-c1ccc(C[C@H](NC(=O)c2c(Cl)cccc2Cl)C(=O)O)c2nccc(C)c12 [Example 97]

>  <valueType>
EC50

>  <readoutValue>
97.2 nM

$$$$
>  <molecule>
CC[C@@H](Nc1cc(F)c(C(=O)N[C@@H](Cc2ccc(-c3c(C)n(C)c(=O)n(C)c3=O)c3cccnc23)C(=O)O)c(F)c1)C(F)(F)F (single isomer, unassigned) [Example 9]

>  <valueType>
EC50

>  <readoutValue>
4.1 nM

$$$$
>  <molecule>
Cc1ccnc2c(C[C@H](NC(=O)c3c(Cl)cccc3Cl)C(=O)O)ccc(-c3cc4ccccc4n(C)c3=O)c12

>  <valueType>
EC50

>  <readoutValue>
22.2 nM

$$$$
>  <molecule>
CCOCc1cc(OC)c(-c2ccc(C[C@H](NC(=O)c3c(F)cc(NS(=O)(=O)c4ccc(-c5ccnc(F)c5)cc4)cc3F)C(=O)O)c3ccccc23)c(OC)c1

>  <valueType>
EC50

>  <readoutValue>
0.8 nM

$$$$
>  <molecule>
Cc1c(-c2ccc(C[C@H](NC(=O)c3c(Cl)cccc3Cl)C(=O)O)c3ncccc23)c(=O)n(C)c2ccc(Cl)cc12 (single isomer, unassigned) [Example 75]

>  <valueType>
EC50

>  <readoutValue>
23 nM

$$$$
>  <molecule>
O=C(N[C@@H](Cc1ccc(-c2c(Cl)cc(F)cc2Cl)c2cccnc12)C(=O)O)c1c(F)cc(N2CCOCC2C(F)(F)F)cc1F (single isomer, unassigned) [Example 6]

>  <valueType>
EC50

>  <readoutValue>
139 nM

$$$$
>  <molecule>
Cc1cc(C(F)(F)F)c(-c2ccc(C[C@H](NC(=O)c3c(Cl)cccc3Cl)C(=O)O)c3ncccc23)c(=O)n1C (single isomer, unassigned) [Example 61]

>  <valueType>
EC50

>  <readoutValue>
15.1 nM

$$$$
>  <molecule>
COc1cccc(OC)c1-c1ccc(C[C@H](NC(=O)c2c(F)cc(NS(=O)(=O)c3ccc(-c4ccnc(F)c4)cc3)cc2F)C(=O)O)c2ccccc12

>  <valueType>
EC50

>  <readoutValue>
1.9 nM

$$$$
>  <molecule>
COc1ncc(F)cc1-c1ccc(C[C@H](NC(=O)c2c(Cl)cccc2Cl)C(=O)O)c2ncccc12

>  <valueType>
EC50

>  <readoutValue>
194 nM

$$$$
>  <molecule>
Cn1c(=O)c(-c2ccc(C[C@H](NC(=O)c3c(Cl)cccc3Cl)C(=O)O)c3ncccc23)c(C(F)(F)F)c2ccccc21 (single isomer, unassigned) [Example 63]

>  <valueType>
EC50

>  <readoutValue>
33.8 nM

$$$$
>  <molecule>
Cc1c(-c2ccc(C[C@H](NC(=O)c3c(Cl)cccc3Cl)C(=O)O)c3ncccc23)c(=O)n(C)c2ccccc12 (single isomer, unassigned) [Example 48]

>  <valueType>
EC50

>  <readoutValue>
2.1 nM

$$$$
>  <molecule>
Cc1c(-c2ccc(C[C@H](NC(=O)c3c(Cl)cccc3Cl)C(=O)O)c3ccccc23)c(=O)n(C)c2ccccc12 (single isomer, unassigned) [Example 118]

>  <valueType>
EC50

>  <readoutValue>
2.5 nM

$$$$
>  <molecule>
CCOCc1cc(OC)c(-c2ccc(C[C@H](NC(=O)c3c(Cl)cccc3Cl)C(=O)O)c3nc(C)oc23)c(OC)c1

>  <valueType>
EC50

>  <readoutValue>
28.4 nM

$$$$
>  <molecule>
Cc1cc(N2CCOC[C@@H]2C(F)(F)F)cc(F)c1C(=O)N[C@@H](Cc1ccc(-c2c(C(F)(F)F)cc(C)n(C)c2=O)c2nccnc12)C(=O)O (atropisomer, axis not shown)

>  <valueType>
EC50

>  <readoutValue>
0.08 nM

$$$$
>  <molecule>
O=C(N[C@@H](Cc1ccc(-c2cccc3scnc23)c2cccnc12)C(=O)O)c1c(Cl)cccc1Cl

>  <valueType>
EC50

>  <readoutValue>
57.7 nM

$$$$
>  <molecule>
Cc1cc(N2CCOC[C@@H]2C(F)(F)F)cc(F)c1C(=O)N[C@@H](Cc1ccc(-n2c(=O)c3ccncc3n(C)c2=O)n2nccc12)C(=O)O

>  <valueType>
EC50

>  <readoutValue>
0.09 nM

$$$$
